Test system: SK-MEL-1;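 further: growth inhibition of human SK-MEL-1 cells, read out by a cell viability assay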
Assay: cells
Type: functional, cell-based
Experimental Conditions: Homo sapiens
Description: SANGER: Inhibition of human SK-MEL-1 cell growth in a cell viability assay.
pIC50: −log10 of the molar value.
Reported pIC50 values for a set of compounds
Measurement Type: pIC50

• CC(C)=CC[C@@H](O)C1=CC(=O)c2c(O)ccc(O)c2C1=O [SHIKONIN] = < 4.80
• Cc1nc(Nc2ncc(C(=O)Nc3c(C)cccc3Cl)s2)cc(N2CCN(CCO)CC2)n1 [DASATINIB] = < 5.89
• CC(=O)c1c(C)c2cnc(Nc3ccc(N4CCNCC4)cn3)nc2n(C2CCCC2)c1=O [PALBOCICLIB] = < 5.40

====

molecules and their reported IC50
Test system: KYSE-410;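 further: growth inhibition of KYSE-410 cells, measured through a cell viability readout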
Assay: cells
Format: functional, cell-based
Experimental Conditions: Homo sapiens
Description: SANGER: Inhibition of human KYSE-410 cell growth in a cell viability assay.
Measurement Type: IC50

* NC(=O)c1ncn([C@@H]2O[C@H](COP(=O)(O)O)[C@@H](O)[C@H]2O)c1N | > 2000 µM
* O=c1cc(N2CCOCC2)oc2c(-c3cccc4c3sc3ccccc34)cccc12 | > 2 µM
* C/C(O)=C(\C#N)C(=O)Nc1cc(Br)ccc1Br | > 16 µM
